Molecular target: KRAS WT (Homo sapiens)
Construct: aa1-188 KRAS WT
Sequence (P01116 1-188 isoform P01116-2): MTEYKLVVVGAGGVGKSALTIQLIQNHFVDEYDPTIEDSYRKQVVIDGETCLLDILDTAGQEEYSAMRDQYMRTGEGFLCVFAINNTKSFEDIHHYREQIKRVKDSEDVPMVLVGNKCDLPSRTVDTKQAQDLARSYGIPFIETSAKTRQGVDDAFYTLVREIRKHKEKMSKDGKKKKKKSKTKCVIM
Assay: HTRF nucleotide exchange assay, KRAS WT
Format: biochemical
Details: HTRF nucleotide exchange assay (NEA), class symbols
Experimental: HTRF Nucleotide Exchange Assay Method The capacity of compounds to bind KRAS G12D, other KRAS mutants and wildtype RAS isoforms was quantified using a HTRF nucleotide exchange assay. […] Following 30-minute incubation at room temperature, time-resolved fluorescence was measured on a PerkinElmer Envision plate reader. […] Data was analysed using a four-parameter logistic model to calculate IC50 values, with at least two independent replicates were performed for each compound. […]
The entries below are paired with their reported IC50.

Solved cases (2 shown):
1) CCc1c(F)ccc2cc(O)cc(-c3cc4nc(OC[C@@]56CCCN5C[C@H](F)C6)nc(N5CC6CC(O)C(C6)C5)c4c4cn(C)nc34)c12 (stereo partly drawn)    ≤ 10 nM
2) CCc1c(F)ccc2cc(O)cc(-c3cc4nc(OC[C@@]56CCCN5C[C@H](F)C6)nc(N5CCC5C(C)(C)O)c4c4cn(C)nc34)c12 (stereo partly drawn)    10 to 100 nM

q: Value lookup for IC50; key = CCc1c(F)ccc2cc(O)cc(-c3c(F)c4nc(OCC5(C#N)CCOC5)nc(N5CCCn6nc(C(=O)N(C)C)cc6C5)c4c4cn(C)nc34)c12 (stereo not drawn)
a: 10 to 100 nM

----------
target: KRAS G12A (Homo sapiens, UniProt P01116, G12A); construct: 4 nM KRAS; aa1-188 containing the G12V, G12C, G12A or G12S amino acid substitution; experiment: HTRF nucleotide exchange assay, KRAS G12A; settings: HTRF nucleotide exchange assay (NEA), class symbols
Sequence (P01116 1-188 isoform P01116-2 G12A): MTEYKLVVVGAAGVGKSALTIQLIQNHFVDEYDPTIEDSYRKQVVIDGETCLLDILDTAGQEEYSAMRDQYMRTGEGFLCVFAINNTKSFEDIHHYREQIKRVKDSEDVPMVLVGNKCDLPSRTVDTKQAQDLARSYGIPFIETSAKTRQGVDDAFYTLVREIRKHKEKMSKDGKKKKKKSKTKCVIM
pIC50: −log10 of the molar value.
The entries below are paired with their reported pIC50.

q: Query pIC50 on KRAS G12A (Homo sapiens, UniProt P01116, G12A) for CCc1c(F)ccc2cc(O)cc(-c3c(C)c4nc(OC[C@@]56CCCN5C[C@H](F)C6)nc(N5CCOCC(C)(O)C5)c4c4cn(C)nc34)c12 (mixture of isomers)
a: ≥ 8.00

q: Query pIC50 on KRAS G12A (Homo sapiens, UniProt P01116, G12A) for CCc1c(F)ccc2cc(O)cc(-c3cc4nc(OC[C@@]56CCCN5C[C@H](F)C6)nc(N5CCCOCC5)c4c4cn(C)nc34)c12
a: ≥ 8.00

----------
molecular target: KRAS WT (Homo sapiens)
pIC50: −log10 of the molar value.
PROPERTY MEASURED: pIC50

1. CCc1c(F)ccc2cc(O)cc(-c3cc4nc(OC[C@@]56CCCN5C[C@H](F)C6)nc(N5CCCC(C)(OC)C5)c4c4cn(C)nc34)c12 (stereo partly drawn) [Example 131]    5.00 to 7.00

q: Value lookup for pIC50; key = Cc1cc2[nH]ncc2c(-c2cc3nc(OC[C@@]45CCCN4C[C@H](F)C5)nc(N4CCCn5nc(C(=O)N(C)C)cc5C4)c3c3cn(C)nc23)c1C [Example 60]
a: 5.00 to 7.00

q: Value lookup for pIC50; key = CN(C)C(=O)c1cc2n(n1)CCCN(c1nc(OC[C@@]34CCCN3C[C@H](F)C4)nc3cc(-c4ccc(F)c5sc(N)c(C#N)c45)c4nn(C)cc4c13)C2 [Example 81]
a: 7.00 to 8.00

q: Value lookup for pIC50; key = CCc1c(F)ccc2cc(O)cc(-c3c(F)c4nc(OCC5(CN(C)C)CC5)nc(N5CCOCC(C)(O)C5)c4c4cn(C)nc34)c12 (stereo not drawn) [Example 157]
a: ≥ 8.00

q: Value lookup for pIC50; key = CCNC(=O)c1cc2n(n1)CCCN(c1nc(OC[C@@]34CCCN3C[C@H](F)C4)nc3c(C)c(-c4cc(O)cc5ccc(F)c(CC)c45)c4nn(C)cc4c13)C2 [Example 181]
a: ≥ 8.00

q: Value lookup for pIC50; key = CCc1c(F)ccc2cc(O)cc(-c3c(C)c4nc(OCC5(C)CC(OC)CN5)nc(N5CCOCC(C)(O)C5)c4c4cn(C)nc34)c12 (stereo not drawn) [Example 137]
a: ≥ 8.00

q: Value lookup for pIC50; key = CCc1c(F)ccc2cc(O)cc(-c3cc4nc(OC[C@@]56CCCN5C[C@H](F)C6)nc(N5CCCOCC5)c4c4cn(C5CC5)nc34)c12 [Example 44]
a: 7.00 to 8.00

q: Value lookup for pIC50; key = Cc1cc2[nH]ncc2c(-c2c(C)c3nc(OCC45CCCN4CC(F)C5)nc(N4CCOCC(C)(O)C4)c3c3cn(C)nc23)c1Cl (stereo not drawn) [Example 173]
a: 5.00 to 7.00

q: Value lookup for pIC50; key = CCc1c(F)ccc2cc(O)cc(-c3cc4nc(OC[C@@]56CCCN5C[C@H](F)C6)nc(N5CCC(CO)C5)c4c4cn(C)nc34)c12 (stereo partly drawn) [Example 122]
a: ≥ 8.00

q: Value lookup for pIC50; key = Cc1c(-c2ccc(F)c3sc(N)c(C#N)c23)c2nn(C)cc2c2c(N3CCCn4nc(C(=O)N(C)C)cc4C3)nc(OC[C@@]34CCCN3C[C@H](F)C4)nc12 [Example 101]
a: ≥ 8.00

q: Value lookup for pIC50; key = CCc1c(F)ccc2cc(O)cc(-c3cc4nc(OCC5(CN(C)C)CC5)nc(N5CCCOCC5)c4c4cn(C)nc34)c12 [Example 30]
a: 7.00 to 8.00

q: Value lookup for pIC50; key = CCc1c(F)ccc2cc(O)cc(-c3c(F)c4nc(OCC56COC(COC)(C5)C6)nc(N5CCOCC(C)(O)C5)c4c4cn(C)nc34)c12 (stereo not drawn) [Example 165]
a: 7.00 to 8.00

Where do the numbers come from? From patent US20260347364A1.
